Provenance of the data: ChEMBL document CHEMBL1130040

Biological target: Adrenergic receptor alpha-1 (Rattus norvegicus, UniProt P15823+P23944+P43140)
Experiment: Tested in vitro for binding affinity by measuring its ability to inhibit [3H]prazosin binding at alpha-1 adrenergic receptor in rat cerebral cortex membranes.
Type: cell membranes
Result Type: log10(Ki) (log10 of the value in µM)

>>> endpoint_result("O=C1C2CCCCN2C(=O)N1CCN1CCN(c2cccc(C(F)(F)F)c2)CC1 (configuration not stated)")
0.64
>>> endpoint_result("O=C1C2CCCN2C(=O)N1CCCN1CCN(c2ccc([N+](=O)[O-])cc2)CC1 (configuration not stated)")
0.88
>>> endpoint_result("O=C1C2CCCCN2C(=O)N1CCCN1CCN(c2ccc([N+](=O)[O-])cc2)CC1 (configuration not stated)")
0.82
>>> endpoint_result("O=C1C2CCCCN2C(=O)N1CCN1CCN(c2ccc([N+](=O)[O-])cc2)CC1 (configuration not stated)")
2.30
>>> endpoint_result("O=C1C2CCCN2C(=O)N1CCN1CCN(c2ccc([N+](=O)[O-])cc2)CC1 (configuration not stated)")
2.41
>>> endpoint_result("O=C1C2CCCN2C(=O)N1CCN1CCN(c2cccc(C(F)(F)F)c2)CC1 (configuration not stated)")
0.59

* * *

Target: Adrenergic receptor alpha-1 (Rattus norvegicus, UniProt P15823+P23944+P43140)
Experiment: In vitro binding affinity against alpha-1 adrenergic receptor of rat cerebral cortex using [3H]prazosin as radioligand.
Format: tissue-based
Result Type: log10 of Ki (log10 of the value in µM)

>>> endpoint_result("O=C1C2CCCN2C(=O)N1CN1CCN(c2ccc([N+](=O)[O-])cc2)CC1 (configuration not stated)")
2.41
>>> endpoint_result("O=C1C2CCCN2C(=O)N1CN1CCN(c2ccccc2)CC1 (configuration not stated)")
0.41
>>> endpoint_result("O=C1C2CCCCN2C(=O)N1CN1CCN(c2ccccc2)CC1 (configuration not stated)")
0.32
>>> endpoint_result("O=C1C2CCCN2C(=O)N1CN1CCN(c2ccc(F)cc2)CC1 (configuration not stated)")
0.08
>>> endpoint_result("O=C1C2CCCCN2C(=O)N1CN1CCN(c2ccc([N+](=O)[O-])cc2)CC1 (configuration not stated)")
2.41
>>> endpoint_result("O=C1C2CCCCN2C(=O)N1CN1CCN(c2cccc(C(F)(F)F)c2)CC1 (configuration not stated)")
0.52
>>> endpoint_result("O=C1C2CCCN2C(=O)N1CN1CCN(c2cccc(C(F)(F)F)c2)CC1 (configuration not stated)")
0.52

* * *

Listing: Ki of selected compounds
Target: 5-hydroxytryptamine receptor 1A (Rattus norvegicus, UniProt P19327)
Sequence (P19327 whole entry): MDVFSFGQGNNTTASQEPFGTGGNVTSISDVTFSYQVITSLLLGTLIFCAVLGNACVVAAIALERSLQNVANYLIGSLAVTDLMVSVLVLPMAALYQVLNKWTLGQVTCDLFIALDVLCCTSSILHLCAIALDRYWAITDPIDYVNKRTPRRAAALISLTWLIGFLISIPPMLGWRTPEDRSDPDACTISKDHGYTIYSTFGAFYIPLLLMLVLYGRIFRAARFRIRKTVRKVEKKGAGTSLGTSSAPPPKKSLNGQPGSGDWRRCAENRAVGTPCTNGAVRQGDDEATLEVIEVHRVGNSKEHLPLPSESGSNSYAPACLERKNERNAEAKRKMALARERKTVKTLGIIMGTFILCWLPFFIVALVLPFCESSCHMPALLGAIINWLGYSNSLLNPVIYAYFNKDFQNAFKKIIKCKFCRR
Assay: Tested in vitro for binding affinity by measuring its ability to inhibit [3H]8-OH-DPAT binding at 5-hydroxytryptamine 1A receptor in rat cerebral cortex membranes.
Assay type: cell membranes
Result Type: Ki (µM)

>>> endpoint_result("O=C1C2CCCN2C(=O)N1CCN1CCN(c2ccc(F)cc2)CC1 (stereo unspecified)")
23.9
>>> endpoint_result("O=C1C2CCCCN2C(=O)N1CCCN1CCN(c2ccc([N+](=O)[O-])cc2)CC1 (stereo unspecified)")
30.6
>>> endpoint_result("O=C1C2CCCN2C(=O)N1CCN1CCN(c2ccccc2)CC1 (stereo unspecified)")
7.55
>>> endpoint_result("O=C1C2CCCN2C(=O)N1CCN1CCN(c2ccc([N+](=O)[O-])cc2)CC1 (stereo unspecified)")
501
>>> endpoint_result("O=C1C2CCCN2C(=O)N1CCCN1CCN(c2ccc(F)cc2)CC1 (stereo unspecified)")
1.18
>>> endpoint_result("O=C1C2CCCCN2C(=O)N1CCN1CCN(c2ccc(F)cc2)CC1 (stereo unspecified)")
19.3
>>> endpoint_result("O=C1C2CCCCN2C(=O)N1CCN1CCN(c2ccc([N+](=O)[O-])cc2)CC1 (stereo unspecified)")
93.6
>>> endpoint_result("O=C1C2CCCCN2C(=O)N1CCN1CCN(c2ccccc2)CC1 (stereo unspecified)")
1.35
>>> endpoint_result("O=C1C2CCCN2C(=O)N1CCCCN1CCN(c2ccc([N+](=O)[O-])cc2)CC1 (stereo unspecified)")
23.9
>>> endpoint_result("CC(C)C(=O)Nc1cccc(N2CCN(CCCCN3C(=O)C4CCCN4C3=O)CC2)c1.Cl (stereo unspecified)")
0.102

* * *

Listing: Ki of selected compounds
Biological target: 5-hydroxytryptamine receptor 1A (Rattus norvegicus)
Test: In vitro binding affinity against 5-hydroxytryptamine 1A receptor of rat cerebral cortex using [3H]8-OH-DPAT as radioligand.
Type: tissue-based
Result Type: Ki (µM)

>>> endpoint_result("COc1ccccc1N1CCN(CN2C(=O)C3CCCCN3C2=O)CC1 (stereo not drawn)")
0.0311
>>> endpoint_result("O=C1C2CCCN2C(=O)N1CN1CCN(c2ccc([N+](=O)[O-])cc2)CC1 (stereo not drawn)")
6.1
>>> endpoint_result("O=C1C2CCCCN2C(=O)N1CN1CCN(c2ccc([N+](=O)[O-])cc2)CC1 (stereo not drawn)")
5.97
